Origin of values: patent US6642007

Record form. Attribute: koff. Fill in for each entry.
Molecular target: T1, biotinylated peptide Bt-AEGPPGPQG (SEQ ID NO: 14)
T1 construct: also called biotinylated peptide 040; peptide 040
T1 peptide: Biotin-AEGPPGPQG
Test: BIAcore, scFv over biotinylated peptide SEQ ID NO: 14 on streptavidin chip, dissociation 280 s
No end group written: not given here. *: point of attachment. Biotin = O=C1N[C@H]2[C@H](CS[C@H]2CCCCC(=O)*)N1
Answers are plain numbers, in s⁻¹.

1) 9A4 scFv CDR3 VH mutant clone 24A (scFv, Derived from p9A4ICAT7-1) scFv: QIQLVQSGPELKKPGETVKISCKASGYTFTDYSIHWVKQAPGKGLKWMGWINTETGEPTYADDFKGRFAFSLETSASTAYLQINNLKNEDTATYFCGRGGSLEYWGQGTTLTVSSGGGGSGGGGSGGGGSQIVLTQSPVFMSASPGEKVTMTCSASSSVSYMYWYQQKPGSSPRLLIHATSNLASGVPVRFSGGGSGTSYSLTISRMEAEDAATYYCQQWRSYTRTFGGGTKLEIIAAAHHHHHHGAAEQKLISEEDLNGAA ... 0.0025
2) 9A4 scFv (VL-linker-VH-FLAG tag) from p9A4IF-5 (scFv, Monomer purified from E. coli; also called 9A4IF-5 scFv; p9A4lF-5) scFv: QIVLTQSPVFMSASPGEKVTMTCSASSSVSYMYWYQQKPGSSPRLLIHATSNLASGVPVRFSGGGSGTSYSLTISRMEAEDAATYYCQQWRSYTRTFGGGTKLEIILSADDAKKDAAKKDDAKKDDAKKDLEIQLVQSGPELKKPGETVKISCKASGYTFTDYSIHWVKQAPGKGLKWMGWINTETGEPTYADDFKGRFAFSLETSASTAYLQINNLKNEDTATYFCARGGSLDYWGQGTTLTVSSASDYKDDDDK ... 0.0048
3) 9A4 scFv CDR3 VH mutant clone 13G (scFv, Derived from p9A4ICAT7-1) scFv: QIQLVQSGPELKKPGETVKISCKASGYTFTDYSIHWVKQAPGKGLKWMGWINTETGEPTYADDFKGRFAFSLETSASTAYLQINNLKNEDTATYFCGRGGSLDNWGQGTTLTVSSGGGGSGGGGSGGGGSQIVLTQSPVFMSASPGEKVTMTCSASSSVSYMYWYQQKPGSSPRLLIHATSNLASGVPVRFSGGGSGTSYSLTISRMEAEDAATYYCQQWRSYTRTFGGGTKLEIIAAAHHHHHHGAAEQKLISEEDLNGAA ... 0.0103
4) 9A4 scFv CDR3 VH mutant clone 5C (scFv, Derived from p9A4ICAT7-1) scFv: QIQLVQSGPELKKPGETVKISCKASGYTFTDYSIHWVKQAPGKGLKWMGWINTETGEPTYADDFKGRFAFSLETSASTAYLQINNLKNEDTATYFCARGGSLDSWGQGTTLTVSSGGGGSGGGGSGGGGSQIVLTQSPVFMSASPGEKVTMTCSASSSVSYMYWYQQKPGSSPRLLIHATSNLASGVPVRFSGGGSGTSYSLTISRMEAEDAATYYCQQWRSYTRTFGGGTKLEIIAAAHHHHHHGAAEQKLISEEDLNGAA ... 0.0025

Okay, next one:
What value of koff has been reported for the following binder? 9A4 scFv CDR3 VH mutant clone 38B (scFv, Derived from p9A4ICAT7-1) scFv: QIQLVQSGPELKKPGETVKISCKASGYTFTDYSIHWVKQAPGKGLKWMGWINTETGEPTYADDFKGRFAFSLETSASTAYLQINNLKNEDTATYFCGRGGSLDSCGQGTTLTVSSGGGGSGGGGSGGGGSQIVLTQSPVFMSASPGEKVTMTCSASSSVSYMYWYQQKPGSSPRLLIHATSNLASGVPVRFSGGGSGTSYSLTISRMEAEDAATYYCQQWRSYTRTFGGGTKLEIIAAAHHHHHHGAAEQKLISEEDLNGAA
0.0026
